- Subject Of Test: MAO-B (Homo sapiens)
- Sequence (P27338 1-520): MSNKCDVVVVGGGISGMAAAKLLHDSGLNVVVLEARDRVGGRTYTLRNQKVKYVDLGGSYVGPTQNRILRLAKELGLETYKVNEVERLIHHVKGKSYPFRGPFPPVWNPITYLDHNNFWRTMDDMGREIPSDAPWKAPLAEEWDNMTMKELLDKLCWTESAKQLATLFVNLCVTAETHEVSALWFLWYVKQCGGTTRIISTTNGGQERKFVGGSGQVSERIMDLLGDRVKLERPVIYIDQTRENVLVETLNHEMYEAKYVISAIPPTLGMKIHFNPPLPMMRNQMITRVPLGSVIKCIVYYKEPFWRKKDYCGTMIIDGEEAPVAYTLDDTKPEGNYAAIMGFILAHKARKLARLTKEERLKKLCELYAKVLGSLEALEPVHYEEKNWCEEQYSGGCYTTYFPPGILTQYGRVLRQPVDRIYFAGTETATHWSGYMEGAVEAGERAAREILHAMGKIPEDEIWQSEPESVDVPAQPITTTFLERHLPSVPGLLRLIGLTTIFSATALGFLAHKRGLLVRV
Known IC50 of a selection of compounds
Measurement Kind: IC50 (nM)

INSERT INTO assay_data (cpd_smiles, unit_label, meas_value) VALUES
  ('O=C(Nc1ccc(Cl)cc1)C1=Cc2ccccc2OC1', 'nM', 10300),
  ('O=c1c(-c2ccccc2)coc2cc(O)cc(O)c12', 'nM', 2830),
  ('Cc1cc(=O)oc2c(C)c(OCc3nnc(S)n3-c3ccc(Br)cc3)ccc12', 'nM', 2320);
